Biological target: Porcine Ventricle myofibrils (left ventricle of Yucatan minipigs) (Sus scrofa)
Construct: Myofibrils from porcine cardiac muscle was isolated from the left ventricle of Yucatan minipigs; tissue Exemplar Genetics; host or cells: left ventricle of Yucatan minipigs
Experiment: Myofibril ATPase assay (PK/LDH NADH-coupled), ventricle myofibrils
Assay type: biochemical
Details: Table 8
measurement_kind: Porcine Ventricle IC25 (µM)

a. C[C@H](C(=O)N[C@@H](CO)c1ccc(F)cc1F)N1Cc2c(Cl)cccc2NC1=O
b. C[C@@H](NC(=O)CN1Cc2c(ccc(F)c2F)NC1=O)c1ncc(F)cc1Cl
c. O=C(CN1Cc2c(ccc(F)c2F)NC1=O)N[C@@H]1CS(=O)(=O)c2cc(F)cc(F)c21
d. C[C@H](C(=O)N[C@H](C)c1ncc(C#N)cc1F)N1Cc2c(ccc(F)c2F)NC1=O
Descending sort on Porcine Ventricle IC25 required. Arrange the labels as the request states and list them. c, d, a, b

A. CC(NC(=O)CN1Cc2c(ccc(F)c2F)NC1=O)c1cc2c(cn1)OCCN2C (single isomer, unassigned)
B. C[C@@H](NC(=O)CN1Cc2c(ccc(F)c2F)NC1=O)c1nnc2c(Cl)cc(C(F)(F)F)cn12
C. C[C@H](NC(=O)CN1C(=O)Nc2ccccc2[C@H]1C)c1ccc(F)cc1F [Compound B156]
Ordering criterion: Porcine Ventricle IC25; begin with the maximum. Arrange the labels as the request states and list them. A, C, B
(A: 100 µM, C: 10.58 µM, B: 4.796 µM)

I. C[C@H](NC(=O)CN1Cc2c(ccc(F)c2F)NC1=O)c1c(F)cncc1F
II. Cc1ccc([C@H](C)NC(=O)CN2Cc3cc(F)ccc3NC2=O)c(F)c1
III. N#Cc1cnc2c(c1)COC[C@H]2NC(=O)CN1Cc2c(ccc(F)c2F)NC1=O
IV. C[C@@H](NC(=O)CN1Cc2c(ccc(F)c2F)NC1=O)c1ccc(Cl)cn1
Ordering criterion: Porcine Ventricle IC25; begin with the maximum. Arrange the labels as the request states and list them. I, IV, II, III
(I: 100 µM, IV: 5.574 µM, II: 2.251 µM, III: 0.1161 µM)

I. C[C@H](NC(=O)CN1C(=O)Nc2ccc(F)cc2[C@H]1C(F)(F)F)c1ccc(F)cc1F
II. C[C@H](NC(=O)CN1Cc2c(C#N)cccc2NC1=O)c1ncc(C#N)cc1F
Could you determine which record has the numerically smaller Porcine Ventricle IC25? Candidates: I and II Select an item and report its label. II
(II: 0.3461 µM, I: 100 µM)

* * *

Tested on: Porcine Atria myofibrils
Test: Myofibril ATPase assay (PK/LDH NADH-coupled), atria myofibrils
Assay type: biochemical
Details: Table 8
measurement_kind: Porcine Atria IC25 (nM)

Use these answered entries as a reference point.
{"molecule": "Cc1cc(F)cc2c1NC(=O)N(CC(=O)N[C@@H](C)c1ccc(C#N)cc1F)C2", "Porcine Atria IC25 / nM": 630}
{"molecule": "Cc1cc(C(C)NC(=O)CN2Cc3c(ccc(F)c3F)NC2=O)ncc1Cl (centres unmarked)", "Porcine Atria IC25 / nM": 350}
{"molecule": "Cc1ccc2c(c1F)CN(CC(=O)N[C@@H](C)c1ccc(C#N)cc1F)C(=O)N2", "Porcine Atria IC25 / nM": 20}
{"molecule": "C[C@H](NC(=O)CN1Cc2c(ccc(F)c2F)NC1=O)c1nc(-c2ccc(F)cn2)no1", "Porcine Atria IC25 / nM": 100000}
{"molecule": "Cc1nc(C#N)cnc1[C@@H](C)NC(=O)CN1Cc2c(ccc(F)c2F)NC1=O", "Porcine Atria IC25 / nM": 110}
{"molecule": "Cc1cc(F)cc2c1NC(=O)N(CC(=O)N[C@H](C)c1ccc(C#N)cc1F)C2", "Porcine Atria IC25 / nM": 1020}

A. CC(C)C[C@H](C(=O)N[C@H](C)c1ncc(F)cc1F)N1Cc2c(ccc(F)c2F)NC1=O
B. COc1cccnc1[C@@H](C)NC(=O)CN1Cc2cc(F)ccc2NC1=O
Could you determine which record has the numerically smaller Porcine Atria IC25? Candidates: A and B Select an item and report its label. A
(A: 49070 nM, B: 100000 nM)

* * *

Tested on: Rabbit Skeletal myofibrils (rabbit psoas muscle)
Assay: Myofibril ATPase assay (PK/LDH NADH-coupled), skeletal myofibrils
Assay type: biochemical
Conditions: Table 8
measurement_kind: Rabbit Psoas IC25 (nM)

Use these answered entries as a reference point.
{"compound": "O=C(CN1Cc2c(ccc(F)c2F)NC1=O)NC1COCc2cc(F)ccc21 (single isomer, unassigned) [Compound B76]", "reported": 5359}
{"compound": "C[C@@H]1c2ccccc2NC(=O)N1CC(=O)N[C@@H](CO)c1ncc(F)cc1F [Compound B165]", "reported": 100000}
{"compound": "Cc1cccnc1[C@@H](C)NC(=O)CN1Cc2c(ccc(F)c2F)NC1=O [Compound B182]", "reported": 1159}
{"compound": "Cc1cc(F)c2c(c1)NC(=O)N(CC(=O)N[C@H](C)c1ccc(C#N)cc1F)C2 [Compound B12]", "reported": 760.6}
{"compound": "Cc1cccc2c1C1(CC1)N(CC(=O)N[C@@H]1COc3cc(C#N)cc(F)c31)C(=O)N2 [Compound B312]", "reported": 50}
{"compound": "C[C@H](NC(=O)CN1Cc2c(ccc(F)c2F)NC1=O)c1ccncc1F [Compound B100]", "reported": 124.6}
{"compound": "Cc1nc(C#N)cnc1[C@H](CO)NC(=O)CN1Cc2c(ccc(F)c2F)NC1=O [Compound B355]", "reported": 70}
{"compound": "Cc1cnc([C@H](C)NC(=O)CN2Cc3cc(F)ccc3NC2=O)c(F)c1 [Compound B195]", "reported": 100000}
{"compound": "O=C(CN1Cc2c(ccc(F)c2F)NC1=O)N[C@@H]1COc2c(F)cc(F)cc2C1 [Compound B101]", "reported": 1059}
{"compound": "CC(C)C[C@H](C(=O)N[C@H](C)c1ccc(F)cc1F)N1Cc2c(ccc(F)c2F)NC1=O [Compound B61]", "reported": 100000}

a. Cc1cccc2c1C1(CC1)N(CC(=O)N[C@H](C)c1ncc(C#N)nc1C)C(=O)N2 [Compound B308]
b. O=C(CN1Cc2c(ccc(F)c2F)NC1=O)N[C@@H]1COc2cc(F)cnc21 [Compound B6]
Could you determine which record has the numerically smaller Rabbit Psoas IC25? Candidates: a and b Select an item and report its label. b

1. C[C@H](NC(=O)CN1Cc2c(ccc(F)c2F)NC1=O)c1ncc(C#N)cn1 [Compound B106]
2. N#Cc1cnc2c(c1)COC[C@@H]2NC(=O)CN1Cc2c(ccc(F)c2F)NC1=O [Compound B5]
Could you determine which record has the numerically smaller Rabbit Psoas IC25? Candidates: 1 and 2 Select an item and report its label. 1

1. C[C@H](NC(=O)CN1Cc2c(ccc(F)c2F)NC1=O)c1ncc(F)cc1F [Compound B191]
2. COc1cnc([C@@H](C)NC(=O)CN2Cc3cc(F)ccc3NC2=O)c(F)c1 [Compound B178]
1 or 2 : whose Rabbit Psoas IC25 is greater? Select an item and report its label. 2

* * *

System: Porcine Atria myofibrils
Experiment: Myofibril ATPase assay (PK/LDH NADH-coupled), atria myofibrils
Assay type: biochemical
Settings: Table 8
measurement_kind: Porcine Atria IC25 (nM)

Use these answered entries as a reference point.
{"smiles_repr": "C[C@H](NC(=O)CN1Cc2cc(F)ccc2NC1=O)c1ccc(C#N)cc1", "measured_target": "Porcine Atria myofibrils", "measurement_kind": "Porcine Atria IC25", "reported": 270}
{"smiles_repr": "Cc1cccc2c1C1(CC1)N(CC(=O)N[C@@H](C)c1cnc(C#N)cn1)C(=O)N2", "measured_target": "Porcine Atria myofibrils", "measurement_kind": "Porcine Atria IC25", "reported": 1080}
{"smiles_repr": "Cc1ncc(F)c([C@@H](C)NC(=O)CN2Cc3c(ccc(F)c3F)NC2=O)n1", "measured_target": "Porcine Atria myofibrils", "measurement_kind": "Porcine Atria IC25", "reported": 220}
{"smiles_repr": "C[C@H](NC(=O)CN1C(=O)Nc2ccc(F)cc2C12CC2)c1cnc(C#N)cn1", "measured_target": "Porcine Atria myofibrils", "measurement_kind": "Porcine Atria IC25", "reported": 1010}
{"smiles_repr": "C[C@H](NC(=O)CN1Cc2cc(F)c(F)cc2NC1=O)c1ccc(C#N)cc1F", "measured_target": "Porcine Atria myofibrils", "measurement_kind": "Porcine Atria IC25", "reported": 20}

I. C[C@H](NC(=O)CN1Cc2c(F)cc(C#N)cc2NC1=O)c1ccc(C#N)cc1F
II. C[C@@H](NC(=O)CN1Cc2c(ccc(F)c2F)NC1=O)c1ccc(C#N)cc1F
I or II : whose Porcine Atria IC25 is greater? Select an item and report its label. I

* * *

Target: Porcine Ventricle myofibrils (left ventricle of Yucatan minipigs) (Sus scrofa, UniProt P79293)
Construct: Myofibrils from porcine cardiac muscle was isolated from the left ventricle of Yucatan minipigs; tissue Exemplar Genetics; host or cells: left ventricle of Yucatan minipigs
Sequence (P79293 whole entry): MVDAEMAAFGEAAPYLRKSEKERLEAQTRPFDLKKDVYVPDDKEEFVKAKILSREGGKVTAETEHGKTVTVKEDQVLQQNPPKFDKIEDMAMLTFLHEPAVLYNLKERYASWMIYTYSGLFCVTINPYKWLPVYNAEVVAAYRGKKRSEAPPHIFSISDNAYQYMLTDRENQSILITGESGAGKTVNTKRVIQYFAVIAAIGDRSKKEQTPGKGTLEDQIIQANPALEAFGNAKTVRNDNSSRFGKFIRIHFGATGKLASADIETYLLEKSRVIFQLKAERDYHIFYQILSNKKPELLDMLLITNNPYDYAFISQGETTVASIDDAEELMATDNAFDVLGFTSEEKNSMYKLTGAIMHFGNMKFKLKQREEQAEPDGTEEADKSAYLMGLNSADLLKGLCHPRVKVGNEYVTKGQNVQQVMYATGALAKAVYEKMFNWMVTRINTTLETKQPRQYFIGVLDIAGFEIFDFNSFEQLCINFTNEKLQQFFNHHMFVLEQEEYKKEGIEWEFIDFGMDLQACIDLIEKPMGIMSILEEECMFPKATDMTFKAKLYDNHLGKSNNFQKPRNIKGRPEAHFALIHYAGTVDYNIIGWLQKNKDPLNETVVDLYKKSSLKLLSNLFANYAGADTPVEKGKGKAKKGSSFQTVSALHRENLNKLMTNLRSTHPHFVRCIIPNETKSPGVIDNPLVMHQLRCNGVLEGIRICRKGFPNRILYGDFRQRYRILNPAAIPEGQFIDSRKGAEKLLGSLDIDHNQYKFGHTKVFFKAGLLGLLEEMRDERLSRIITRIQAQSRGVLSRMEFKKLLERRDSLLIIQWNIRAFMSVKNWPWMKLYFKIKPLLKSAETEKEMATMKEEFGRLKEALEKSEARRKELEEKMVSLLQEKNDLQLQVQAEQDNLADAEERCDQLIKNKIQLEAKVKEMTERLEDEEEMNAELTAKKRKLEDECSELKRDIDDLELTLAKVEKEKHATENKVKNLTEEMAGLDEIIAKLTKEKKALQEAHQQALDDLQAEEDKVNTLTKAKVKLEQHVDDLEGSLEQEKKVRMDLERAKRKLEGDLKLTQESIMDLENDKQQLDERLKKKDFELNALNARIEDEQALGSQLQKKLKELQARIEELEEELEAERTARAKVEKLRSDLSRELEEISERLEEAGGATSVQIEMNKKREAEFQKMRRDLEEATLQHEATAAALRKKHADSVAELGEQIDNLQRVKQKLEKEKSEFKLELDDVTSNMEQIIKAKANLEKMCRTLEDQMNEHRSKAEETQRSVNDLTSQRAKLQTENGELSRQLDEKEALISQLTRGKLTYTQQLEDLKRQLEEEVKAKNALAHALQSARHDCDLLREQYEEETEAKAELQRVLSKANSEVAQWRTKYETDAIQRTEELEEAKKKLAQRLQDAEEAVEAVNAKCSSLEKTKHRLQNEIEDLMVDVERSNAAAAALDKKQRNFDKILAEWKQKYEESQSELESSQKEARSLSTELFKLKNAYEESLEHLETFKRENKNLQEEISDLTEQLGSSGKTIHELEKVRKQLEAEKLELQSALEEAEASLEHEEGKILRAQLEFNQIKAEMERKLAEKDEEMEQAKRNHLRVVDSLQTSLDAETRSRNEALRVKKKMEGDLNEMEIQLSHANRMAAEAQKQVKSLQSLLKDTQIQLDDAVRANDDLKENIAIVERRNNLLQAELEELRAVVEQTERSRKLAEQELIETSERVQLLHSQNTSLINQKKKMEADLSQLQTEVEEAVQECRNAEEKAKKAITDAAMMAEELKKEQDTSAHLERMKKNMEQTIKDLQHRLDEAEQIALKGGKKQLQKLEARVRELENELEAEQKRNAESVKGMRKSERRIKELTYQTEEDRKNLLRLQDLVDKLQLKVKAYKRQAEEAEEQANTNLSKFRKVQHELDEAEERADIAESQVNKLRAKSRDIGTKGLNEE
Experiment: Myofibril ATPase assay (PK/LDH NADH-coupled), ventricle myofibrils
Assay type: biochemical
Conditions: Table 7
measurement_kind: Porcine Ventricle IC25 (µM)

{"smiles_repr": "C[C@H](NC(=O)CN1C(=O)Nc2ccc(O)nc2C12CC2)c1ccc(F)cc1F", "Porcine Ventricle IC25, µM": 100}
{"smiles_repr": "C[C@H](NC(=O)CN1Cc2c(ccnc2F)NC1=O)c1ccc(F)cc1F", "Porcine Ventricle IC25, µM": 0.2452}
{"smiles_repr": "N#Cc1cnc2c(n1)CC[C@@H]2NC(=O)CN1C(=O)Nc2ccc(C#N)nc2C12CC2", "Porcine Ventricle IC25, µM": 10.90}

a. Cc1ncc2c(n1)CN(CC(=O)N[C@@H](C)c1ccc(F)cc1F)C(=O)N2
b. C[C@H](NC(=O)CN1Cc2c(C#N)cncc2NC1=O)c1ccc(F)cc1F
c. C[C@H](NC(=O)CN1Cc2nc(Cl)ccc2NC1=O)c1ccc(F)cc1F
Ordering criterion: Porcine Ventricle IC25; begin with the maximum. Arrange the labels as the request states and list them. a, b, c
(a: 100 µM, b: 37.65 µM, c: 0.3795 µM)

A. Cc1c(F)cnc2c1CN(CC(=O)N[C@@H](C)c1ncc(F)cc1F)C(=O)N2
B. C[C@H](NC(=O)CN1Cc2c(C#N)cncc2NC1=O)c1ncc(F)cc1F
C. C[C@H](NC(=O)CN1Cc2c(ccnc2Cl)NC1=O)c1ccc(F)cc1F
Sort (3 compounds) by Porcine Ventricle IC25: min first. Arrange the labels as the request states and list them. C, B, A
